# study_system: human histone deacetylase
# assay_procedure: Test 1: Determination of histone deacetylase inhibitor activity ([3H]acetyl histone deacetylation)
# measurement_conditions: human histone deacetylase partially purified from Jurkat cells; [3H]acetyl-labeled histones, 25° C., 30 minutes; read-out: Test 1: HDAC inhibitory activity IC50
pIC50: −log10 of the molar value.
measurement_name: pIC50

O=C(/C=C/c1ccc(CCc2nc3ccccc3[nH]2)cc1)NO :: 6.85

(A) O=C(/C=C/c1ccc(C(Cc2ccccc2)c2nc3ccccc3n2Cc2ccccc2)cc1)NO (stereo not shown)
(B) O=C(/C=C/c1ccc(Cc2nc3ccccc3[nH]2)cc1)NO [Compound E1]
Q: Which item exceeds the other in pIC50, A or B ? Your answer should be the label of the entry you select.
Ans: B

Taken from patent US7135493B2.
